This listing pairs molecules with measured MTD.
- assay method text: Toxicity in orally dosed Swiss mouse assessed as induction of observable clinical effects measured 2 to 4 days after dosing
- Type: organism-based
- experimental setup: in vivo, po, time 2-4 day
property: MTD (mg/kg)

1) Cc1ccc(Oc2ccc(CNC(=O)c3c(F)cnn3C)cc2)cc1 ... 20
2) Cc1nn(C)c(C(=O)NCc2ccc(Oc3ccc(Cl)nc3)cc2)c1Cl ... 1
3) Cn1ncc(Cl)c1C(=O)NCc1ccc(Oc2ccc(Cl)nc2)cc1 ... 1
4) Cn1ncc(Cl)c1C(=O)NCc1ccc(Oc2ccc(Cl)cc2)cc1 ... 5
5) CCc1nc(-c2ccc(CNC(=O)c3ccnn3C)cc2)no1 ... 1
6) CCc1nn(C)c(C(=O)NCc2ccc(Oc3ccc(C)cc3)cc2)c1Cl ... 1
7) Cn1ncc(Cl)c1C(=O)NCc1ccc(-c2noc(C3CC3)n2)cc1 ... 1
